B1: FAM46D (parent)
chain: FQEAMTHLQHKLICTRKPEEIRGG

Variants of: B1
ASSAY COMMENT: protein stability index of a GFP-peptide fusion (GPS, HEK-293T) (PSI 1-6); higher = more stable;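 note: lentivirally expressed fusions sorted by FACS into six bins by GFP to DsRed ratio, PSI derived from sequencing read proportions per bin multiplied by bin number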
STATED CONDITIONS: c terminus: a fixed tail appended
Here the recorded protein stability index is given for each entry.
METRIC NAME: protein stability index

variant_designation=I13G endpoint_value=2.67
variant_designation=E20Y endpoint_value=2.34
variant_designation=P18A endpoint_value=2.72
variant_designation=R22N endpoint_value=2.93
variant_designation=T6Q endpoint_value=2.13
variant_designation=G23F endpoint_value=2.02
variant_designation=Q9A endpoint_value=2.25
variant_designation=E3N endpoint_value=2.55
variant_designation=Q2W endpoint_value=1.67
variant_designation=Q2T endpoint_value=2.1
variant_designation=K11S endpoint_value=3.15
variant_designation=R22I endpoint_value=2.41
variant_designation=H7P endpoint_value=3.4
variant_designation=K11G endpoint_value=2.38
variant_designation=Q9T endpoint_value=2.6
variant_designation=I13M endpoint_value=2.61
variant_designation=C14S endpoint_value=2.87
variant_designation=H10D endpoint_value=3.14
variant_designation=L8V endpoint_value=2.07
variant_designation=K11C endpoint_value=2.89
variant_designation=G23H endpoint_value=2.61
variant_designation=L12F endpoint_value=2.38
variant_designation=G23E endpoint_value=2.16
variant_designation=R16H endpoint_value=2.6
variant_designation=K11L endpoint_value=2.79
variant_designation=F1D endpoint_value=4.81
variant_designation=H10T endpoint_value=3.52
variant_designation=R16Q endpoint_value=3.16
variant_designation=G24W endpoint_value=1.68
variant_designation=Q2C endpoint_value=1.76
variant_designation=H7A endpoint_value=2.44
variant_designation=R22T endpoint_value=2.96
variant_designation=R16L endpoint_value=2.55
variant_designation=R16V endpoint_value=2.77
variant_designation=E19G endpoint_value=1.83
variant_designation=E3Y endpoint_value=2.3
variant_designation=E3S endpoint_value=1.91
variant_designation=Q2E endpoint_value=4.25
variant_designation=H7V endpoint_value=2.48
variant_designation=T6M endpoint_value=1.66
